pIC50 reference
System: D-542MG
methodSummary: cells
Type: functional, cell-based
assayConditions: Homo sapiens
Description: SANGER: Inhibition of human D-542MG cell growth in a cell viability assay.
pIC50: −log10 of the molar value.

C/C(=C\c1csc(C)n1)[C@@H]1C[C@@H]2O[C@]2(C)CCC[C@H](C)[C@H](O)[C@@H](C)C(=O)C(C)(C)[C@@H](O)CC(=O)O1 ... < 7.49

Now for another entry.
Tested on D-542MG, the item `NC(=O)Nc1cc(-c2cccc(F)c2)sc1C(=O)N[C@H]1CCCNC1` showed pIC50 equal to < 5.70

* * *

System: MHH-CALL-2;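 also: growth inhibition of the cell line, read out in a cell viability assay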
methodSummary: cells
Assay type: functional, cell-based, Homo sapiens
assayConditions: Homo sapiens, MHH-CALL-2
Description: SANGER: Inhibition of human MHH-CALL-2 cell growth in a cell viability assay.
pIC50: −log10 of the molar value.
recordedEndpoint: pIC50

# annotated cases, reported pIC50 shown
Cc1cc(N2CCOCC2)cc2[nH]c(-c3c(NC[C@@H](O)c4cccc(Cl)c4)cc[nH]c3=O)nc12 ... < 5.29
CCCCCCCCCCCC1=C(O)C(=O)C=C(O)C1=O ... < 4.49
CC(C)C[C@H](NC(=O)[C@H](Cc1ccccc1)NC(=O)c1cnccn1)B(O)O ... < 7.70
C=CC(=O)N1CCCC(Nc2nc(Nc3ccc(N(C)C(=O)CC)cc3)nc3[nH]cnc23)C1 (stereo not drawn) ... < 4.99
O=S(=O)(O)c1ccc2cc(/N=N/c3cc(S(=O)(=O)O)c4cccnc4c3O)ccc2c1 ... < 4.80
OC[C@H](Cc1ccccc1)Nc1nc(Oc2ccc3c(c2)CCC3)nc2c1ncn2Cc1ccc(-c2ccccc2)cc1 ... < 4.99

Form field pIC50, entry `NC(=O)c1cccc(-c2cc(Nc3ccc(OC(F)(F)F)cc3)ncn2)c1` : < 5.89

Looking up `Nc1ccccc1NC(=O)c1ccc(CNC(=O)OCc2cccnc2)cc1` , I found its pIC50 recorded as 5.90

* * *

The following compounds are shown together with reported IC50 values.
Test system: CAL-33;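 also: growth inhibition of CAL-33 cells, read out with a cell viability assay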
methodSummary: cells
Type: functional, cell-based
assayConditions: Homo sapiens
Description: SANGER: Inhibition of human CAL-33 cell growth in a cell viability assay.

O=S(=O)(O)c1ccc2cc(/N=N/c3cc(S(=O)(=O)O)c4cccnc4c3O)ccc2c1 ... > 16 µM
NC(=O)c1ccc(N(C(N)=O)c2c(F)cccc2F)nc1-c1ccc(F)cc1F ... > 2 µM
CN(C)CCOc1ccc(-c2nc(-c3ccncc3)c(-c3ccc4c(c3)CC/C4=N\O)[nH]2)cc1 ... > 5 µM

Switching to the query record.
In plain terms, `Cc1ccc(-n2nc(C(C)(C)C)cc2NC(=O)Nc2ccc(OCCN3CCOCC3)c3ccccc23)cc1` has a documented IC50 of > 10 µM

* * *

Collected pIC50 values appear next to each entry.
Test system: M14
methodSummary: cells
Type: functional, cell-based
assayConditions: Homo sapiens
Description: SANGER: Inhibition of human M14 cell growth in a cell viability assay.
In plain terms, pIC50 is the concentration in mol/L turned into minus its base-10 logarithm.

Examples from the recorded data:
CS(=O)(=O)N1CCN(Cc2cc3nc(-c4cccc5[nH]ncc45)nc(N4CCOCC4)c3s2)CC1 ... 5.48
O=C1NC(=O)c2c1c(-c1ccccc1Cl)cc1[nH]c3ccc(O)cc3c21 ... 5.77

The record that follows has no pIC50 shown yet.
pIC50 for `CN(NC(=O)CC(=O)NN(C)C(=S)c1ccccc1)C(=S)c1ccccc1` is 6.91

* * *

Test system: HCC1599
methodSummary: cells
Format: functional, cell-based, Homo sapiens
assayConditions: Homo sapiens, HCC1599
Description: SANGER: Inhibition of human HCC1599 cell growth in a cell viability assay.
recordedEndpoint: pIC50
Scale for pIC50: -log10 of concentration given in mol/L; no unit attached.

Nc1ccccc1NC(=O)c1ccc(CNC(=O)OCc2cccnc2)cc1 [ENTINOSTAT] ... 6.29
CC(C)C[C@H](NC(=O)[C@H](Cc1ccccc1)NC(=O)c1cnccn1)B(O)O [BORTEZOMIB] ... 7.92

Now look at this one.
Form: item C/C(=C\c1csc(C)n1)[C@@H]1C[C@@H]2O[C@]2(C)CCC[C@H](C)[C@H](O)[C@@H](C)C(=O)C(C)(C)[C@@H](O)CC(=O)O1 [PATUPILONE] ; test system HCC1599; pIC50: 7.92
